# Measured Target: T1, mouse Ang2 (construct not stated) (mouse, UniProt O35608 19-496, limits assumed)
# T1 construct: also called mAng2
# T1 sequence (looked up): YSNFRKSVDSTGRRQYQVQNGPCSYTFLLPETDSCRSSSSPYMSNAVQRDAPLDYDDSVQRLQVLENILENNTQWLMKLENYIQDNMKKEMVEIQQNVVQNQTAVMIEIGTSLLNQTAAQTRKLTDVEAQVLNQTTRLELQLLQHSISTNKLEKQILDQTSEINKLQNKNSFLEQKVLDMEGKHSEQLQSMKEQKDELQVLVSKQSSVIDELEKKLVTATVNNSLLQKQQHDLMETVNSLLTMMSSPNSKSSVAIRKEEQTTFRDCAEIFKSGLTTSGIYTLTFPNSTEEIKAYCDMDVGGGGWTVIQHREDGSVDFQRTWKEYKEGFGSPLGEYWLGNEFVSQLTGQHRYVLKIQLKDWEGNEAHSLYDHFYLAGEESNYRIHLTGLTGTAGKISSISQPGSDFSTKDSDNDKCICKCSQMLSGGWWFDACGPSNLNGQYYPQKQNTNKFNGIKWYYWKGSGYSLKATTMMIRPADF
# Assay Comment: SPR Biacore T200, antibody captured on protein A chip, Ang2 as analyte, 1:1 model
Metric: Kd (nM)
Kindly provide the numeric value in nM only, without the unit symbol.

What Kd value was documented for this binder, No. 4 anti-Ang2 antibody (IgG) (antibody, V domains shown, IgG form: VH cloned into Invivogen pfusess-hchg1, VL into Invivogen pfuse2ss-hclk; also called 2D8) VH: QVQLVESGAEVKRPGESLRISCKTSGYSFTSYWIHWVRQMPGKELEWMGSIYPGNSDTRYSPSFQGHVTISADSSSSTAYLQWSSLKASDTAMYYCTTEGLMNGLHFDMWGQGTMVTVSS VL: DIVMTQTPLSLPVTPGEPASISCRSSQSLLHSLGDNYLDWYLQKPGQSPQLLIYLGSKRAAGVPDRFSGSGSGTDFTLKISRVEAEDVGVYYCMQSLQTPPYTFGQGTKLEIKR ? 0.45
